Molecular target: Muscarinic acetylcholine receptor M1 (Homo sapiens, UniProt P11229)
Sequence (P11229 whole entry): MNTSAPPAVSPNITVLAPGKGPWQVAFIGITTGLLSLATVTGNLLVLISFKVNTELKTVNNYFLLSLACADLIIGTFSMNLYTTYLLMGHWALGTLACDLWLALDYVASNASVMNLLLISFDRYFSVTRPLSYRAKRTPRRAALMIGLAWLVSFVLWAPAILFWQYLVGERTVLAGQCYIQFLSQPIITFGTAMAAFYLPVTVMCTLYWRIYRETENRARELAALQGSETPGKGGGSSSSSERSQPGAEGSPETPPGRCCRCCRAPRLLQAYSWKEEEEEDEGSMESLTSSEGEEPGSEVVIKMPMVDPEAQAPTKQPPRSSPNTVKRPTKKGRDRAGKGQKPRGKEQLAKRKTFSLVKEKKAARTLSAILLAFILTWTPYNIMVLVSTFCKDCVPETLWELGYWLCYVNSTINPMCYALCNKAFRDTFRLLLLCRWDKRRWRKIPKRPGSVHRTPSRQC
Assay: Binding affinity against human muscarine receptor (hM1) cloned in CHO cells
pKi: −log10 of the molar value.

given.smiles: C[C@@H]1OC(=O)[C@H]2C[C@H]3CCCC[C@@H]3[C@@H](C#C[C@H]3CCC[C@H](C)N3C)[C@@H]12
pKi: 5.49
//
given.smiles: C[C@@H]1OC(=O)[C@H]2C[C@H]3CCCC[C@@H]3[C@@H](/C=C\[C@H]3CCC[C@H](C)N3C)[C@@H]12
pKi: 5.82
//
given.smiles: C[C@@H]1OC(=O)[C@H]2C[C@H]3CCCC[C@@H]3[C@@H](/C=C/[C@H]3CCC[C@H](C)N3C)[C@@H]12
pKi: 6.80
//
given.smiles: C[C@@H]1OC(=O)[C@H]2C[C@H]3CCCC[C@H]3[C@H](C#C[C@H]3CCC[C@H](C)N3C)[C@@H]12
pKi: 5.27
//
given.smiles: C[C@@H]1OC(=O)[C@@H]2C[C@@H]3CCCC[C@@H]3[C@@H](/C=C\[C@H]3CCC[C@H](C)N3C)[C@H]12
pKi: 5.63
//
given.smiles: C[C@@H]1OC(=O)[C@@H]2C[C@@H]3CCCC[C@@H]3[C@@H](/C=C/[C@H]3CCC[C@H](C)N3C)[C@H]12
pKi: 6.37
//
given.smiles: C[C@@H]1OC(=O)[C@H]2C[C@H]3CCCC[C@H]3[C@H](/C=C/[C@H]3CCC[C@H](C)N3C)[C@@H]12
pKi: 5.76
//
given.smiles: C[C@@H]1OC(=O)[C@@H]2C[C@@H]3CCCC[C@@H]3[C@@H](C#C[C@H]3CCC[C@H](C)N3C)[C@H]12
pKi: 5.49
//
given.smiles: C[C@@H]1OC(=O)[C@H]2C[C@H]3CCCC[C@H]3[C@H](/C=C\[C@H]3CCC[C@H](C)N3C)[C@@H]12
pKi: 5.59

---

Biological target: Muscarinic acetylcholine receptor M2 (Homo sapiens, UniProt P08172)
Sequence (P08172 whole entry): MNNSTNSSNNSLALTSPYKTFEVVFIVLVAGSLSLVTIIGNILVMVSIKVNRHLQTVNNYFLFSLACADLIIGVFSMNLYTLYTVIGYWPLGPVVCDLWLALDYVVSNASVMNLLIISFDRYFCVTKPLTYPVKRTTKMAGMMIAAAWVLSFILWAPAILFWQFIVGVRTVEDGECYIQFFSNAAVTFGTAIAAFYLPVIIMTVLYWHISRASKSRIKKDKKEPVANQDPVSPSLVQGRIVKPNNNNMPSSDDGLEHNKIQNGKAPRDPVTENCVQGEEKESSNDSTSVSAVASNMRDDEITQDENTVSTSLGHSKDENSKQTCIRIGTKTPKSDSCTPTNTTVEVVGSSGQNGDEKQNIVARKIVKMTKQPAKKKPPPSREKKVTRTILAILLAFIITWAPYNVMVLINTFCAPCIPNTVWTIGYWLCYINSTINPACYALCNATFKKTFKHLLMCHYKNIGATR
Test: Binding affinity against human muscarine receptor (hM2) cloned in CHO cells
pKi: −log10 of the molar value.
// label = rule met if pKi is not less than 6, otherwise rule not met

compound: C[C@@H]1OC(=O)[C@H]2C[C@H]3CCCC[C@H]3[C@H](/C=C/[C@H]3CCC[C@H](C)N3C)[C@@H]12
cat: rule met
--
compound: C[C@@H]1OC(=O)[C@@H]2C[C@@H]3CCCC[C@@H]3[C@@H](/C=C/[C@H]3CCC[C@H](C)N3C)[C@H]12
cat: rule met
--
compound: C[C@@H]1OC(=O)[C@H]2C[C@H]3CCCC[C@@H]3[C@@H](C#C[C@H]3CCC[C@H](C)N3C)[C@@H]12
cat: rule met
--
compound: C[C@@H]1OC(=O)[C@H]2C[C@H]3CCCC[C@@H]3[C@@H](/C=C/[C@H]3CCC[C@H](C)N3C)[C@@H]12 [HIMBACINE]
cat: rule met
--
compound: C[C@@H]1OC(=O)[C@H]2C[C@H]3CCCC[C@@H]3[C@@H](/C=C\[C@H]3CCC[C@H](C)N3C)[C@@H]12
cat: rule not met

---

Target: Muscarinic acetylcholine receptor M2 (Homo sapiens, UniProt P08172)
Experiment: Binding affinity against human muscarine receptor (hM2) cloned in CHO cells
pKi: −log10 of the molar value.
Quick reference for pKi among some compounds

given.smiles: C[C@@H]1OC(=O)[C@@H]2C[C@@H]3CCCC[C@@H]3[C@@H](C#C[C@H]3CCC[C@H](C)N3C)[C@H]12
assayed.target: Muscarinic acetylcholine receptor M2 (Homo sapiens, UniProt P08172)
pKi: 5.93
--
given.smiles: C[C@@H]1OC(=O)[C@H]2C[C@H]3CCCC[C@H]3[C@H](C#C[C@H]3CCC[C@H](C)N3C)[C@@H]12
assayed.target: Muscarinic acetylcholine receptor M2 (Homo sapiens, UniProt P08172)
pKi: 5.94
--
given.smiles: C[C@@H]1OC(=O)[C@H]2C[C@H]3CCCC[C@H]3[C@H](/C=C\[C@H]3CCC[C@H](C)N3C)[C@@H]12
assayed.target: Muscarinic acetylcholine receptor M2 (Homo sapiens, UniProt P08172)
pKi: 6.07
--
given.smiles: C[C@@H]1OC(=O)[C@@H]2C[C@@H]3CCCC[C@@H]3[C@@H](/C=C\[C@H]3CCC[C@H](C)N3C)[C@H]12
assayed.target: Muscarinic acetylcholine receptor M2 (Homo sapiens, UniProt P08172)
pKi: 6.17
